Tested on: P. vulgatus RND KO
Assay: growth AUC normalised to DMSO control (median) (fraction of control); higher = less growth inhibition, active = hit call of the paper;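 further: active when median AUC fell below 0.1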
Details: 20 µM
Where a name gives a salt, the structure may show the parent alone.
Readout Type: growth AUC normalised to DMSO control
Output spec: single numeric token, no unit.

Solved entries:
{"Compound": "COC(=O)C1=C(C)NC(C)=C(C(=O)OC(C)C)C1c1cccc2nonc12 (stereo not given) [Isradipine]", "Assay System": "P. vulgatus RND KO", "Result": 1.02}
{"Compound": "CCN(CC)CCOCCOC(=O)C(CC)(CC)c1ccccc1 [Oxeladin citrate]", "Assay System": "P. vulgatus RND KO", "Result": 1}
{"Compound": "Nc1ccc(S(=O)(=O)Nc2cnc3ccccc3n2)cc1 [Sulfaquinoxaline sodium salt]", "Assay System": "P. vulgatus RND KO", "Result": 1.01}
{"Compound": "CCCNC(C)C(=O)Nc1ccccc1C (stereo not given) [Prilocaine hydrochloride]", "Assay System": "P. vulgatus RND KO", "Result": 0.99}

Next compound, growth AUC normalised to DMSO control to be filled in.
Exercise: P. vulgatus RND KO / growth AUC normalised to DMSO control / N[C@@H](CSCCCO)C(=O)O [Fudosteine] : value?
Solution: 1

###

Tested on: S. enterica typhimurium tolC KO
Test: growth AUC normalised to DMSO control (median) (fraction of control); higher = less growth inhibition, active = hit call of the paper
Settings: 20 µM
Counter-ions that a name gives are not always drawn.
Readout Type: growth AUC normalised to DMSO control
Respond with the number and no other words.

Take a look at these entries with their results.
{"Molecule": "CO[C@H]1C[C@H](O[C@H]2[C@H](C)[C@@H](O[C@@H]3O[C@H](C)C[C@H](N(C)C)[C@H]3OC(C)=O)[C@@H](C)C[C@@]3(CO3)C(=O)[C@H](C)[C@@H](OC(C)=O)[C@@H](C)[C@@H](C)OC(=O)[C@@H]2C)O[C@@H](C)[C@@H]1OC(C)=O [Troleandomycin]", "Result": 0.207}
{"Molecule": "CCOc1cc(CC(=O)N[C@@H](CC(C)C)c2ccccc2N2CCCCC2)ccc1C(=O)O [Repaglinide]", "Result": 0.981}
{"Molecule": "CCN(CC)CCOC(=O)c1ccc(N)cc1 [Procaine hydrochloride]", "Result": 0.998}
{"Molecule": "N=C(N)NC(=O)Cc1c(Cl)cccc1Cl [Guanfacine hydrochloride]", "Result": 0.966}

Exercise: Could you tell me which growth AUC normalised to DMSO control is on file for OC(CCN1CCCCC1)(c1ccccc1)c1ccccc1 [Pridinol methanesulfonate salt] ?
Solution: 0.994

Exercise: Any idea what growth AUC normalised to DMSO control was measured for CCC(=O)O[C@@H](O[P@](=O)(CCCCc1ccccc1)CC(=O)N1C[C@H](C2CCCCC2)C[C@H]1C(=O)O)C(C)C [Fosinopril] ?
Solution: 1.01

Exercise: Fill blank: measured growth AUC normalised to DMSO control of the molecule CC1CNc2c(cccc2S(=O)(=O)N[C@@H](CCCNC(=N)N)C(=O)N2CC[C@@H](C)C[C@@H]2C(=O)O)C1 (some centres undefined) [Argatroban] is ____.
Solution: 0.996

Exercise: What value of growth AUC normalised to DMSO control has been reported for the following molecule? CC(C)OC(=O)C(C)(C)Oc1ccc(C(=O)c2ccc(Cl)cc2)cc1 [Fenofibrate]
Solution: 0.94

Exercise: Value lookup for growth AUC normalised to DMSO control; key = C=CC[C@@H]1/C=C(\C)C[C@H](C)C[C@H](OC)[C@H]2O[C@@](O)(C(=O)C(=O)N3CCCC[C@H]3C(=O)O[C@H](/C(C)=C/[C@@H]3CC[C@@H](O)[C@H](OC)C3)[C@H](C)[C@@H](O)CC1=O)[C@H](C)C[C@@H]2OC [Tacrolimus Monohydrate]
Solution: 1.04
